Values were extracted from the supplement of paper PMC10567573.

B1: GMCL1 (parent)
chain: FCYCAGSHKRKRSSGSFCYCHPDS

# Variants of: B1
# TEST DESCRIPTION: protein stability index of a GFP-peptide fusion (GPS, HEK-293T) (PSI 1-6); higher = more stable;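 also: lentivirally expressed fusions sorted by FACS into six bins by GFP to DsRed ratio, PSI derived from sequencing read proportions per bin multiplied by bin number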
# SETUP CONDITIONS: c terminus: a fixed tail appended
Class rule met: protein stability index at least 2. Class rule not met: protein stability index below 2.

Worked set:
S13N; rule not met
A5H; rule met
S16C; rule not met
S16V; rule met
A5M; rule not met

## Input Please check the record G6M and state if its protein stability index is at or above 2.
## Output rule met

## Input Evaluate R12D : protein stability index at minimum 2?
## Output rule met

## Input Given the entry H21I , answer whether its protein stability index meets or surpasses 2.
## Output rule met

## Input Is protein stability index at least 2? Consider C20S
## Output rule not met

## Input Say whether Y3S shows protein stability index of 2 or more.
## Output rule met

## Input Does the variant H21C have recorded protein stability index that is 2 or more?
## Output rule not met

## Input Could you verify whether the entry Y3K shows protein stability index of no less than 2?
## Output rule met
